- Target under test: human vasopressin V1a receptor subtype (Homo sapiens, UniProt P37288)
- Construct: host or cells: CHO cells (pZeoSV vector for the Thibonnier line)
- Sequence (P37288 whole entry): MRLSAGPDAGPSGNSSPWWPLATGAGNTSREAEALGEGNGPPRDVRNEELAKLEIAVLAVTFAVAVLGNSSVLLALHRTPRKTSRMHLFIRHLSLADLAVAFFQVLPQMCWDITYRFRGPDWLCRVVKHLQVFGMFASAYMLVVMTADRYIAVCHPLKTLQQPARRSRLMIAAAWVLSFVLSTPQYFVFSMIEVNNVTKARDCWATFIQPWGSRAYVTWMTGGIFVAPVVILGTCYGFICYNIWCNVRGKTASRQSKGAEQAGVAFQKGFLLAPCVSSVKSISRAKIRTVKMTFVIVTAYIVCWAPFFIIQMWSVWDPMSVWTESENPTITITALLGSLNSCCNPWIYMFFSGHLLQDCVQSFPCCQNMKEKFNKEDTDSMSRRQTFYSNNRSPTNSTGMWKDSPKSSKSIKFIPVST
- Measurement protocol: Vasopressin binding in Chinese Hamster Ovary cell membranes expressing human vasopressin V1a subtype receptors
- Experimental parameters: 100 nM, CHO cell membranes, [3H]Manning ligand, values without parentheses
# inhibition at 0.1 µM per record follows
# number only, unit % dropped from output

[[record]]
query_smiles = "COc1ccccc1-c1ccc(C(=O)N2Cc3ccc(C(=O)N[C@@H](Cc4c[nH]cn4)C(N)=O)n3Cc3ccccc32)cc1"
target_under_test = "human vasopressin V1a receptor subtype (Homo sapiens, UniProt P37288)"
unit_descriptor = "%"
assay_value = 38

[[record]]
query_smiles = "COc1cc(C(=O)N2Cc3ccc(C(=O)NCCCN(C)C)n3Cc3ccccc32)ccc1-c1cccc2ccccc12"
target_under_test = "human vasopressin V1a receptor subtype (Homo sapiens, UniProt P37288)"
unit_descriptor = "%"
assay_value = 16

[[record]]
query_smiles = "COc1cccc(-c2cc(OC)c(C(=O)N3Cc4ccc(C(=O)NCCN5CCCCC5)n4Cc4ccccc43)cc2Cl)c1"
target_under_test = "human vasopressin V1a receptor subtype (Homo sapiens, UniProt P37288)"
unit_descriptor = "%"
assay_value = 2

[[record]]
query_smiles = "Cc1cc(C(=O)N2Cc3ccc(C(=O)N[C@H]4CN5CCC4CC5)n3Cc3ccccc32)ccc1-c1ccccc1C(F)(F)F"
target_under_test = "human vasopressin V1a receptor subtype (Homo sapiens, UniProt P37288)"
unit_descriptor = "%"
assay_value = 1

[[record]]
query_smiles = "COc1ccccc1-c1ccc(C(=O)N2Cc3ccc(C(=O)N4CCC(N5CCCCC5)CC4)n3Cc3ccccc32)cc1C"
target_under_test = "human vasopressin V1a receptor subtype (Homo sapiens, UniProt P37288)"
unit_descriptor = "%"
assay_value = 8

[[record]]
query_smiles = "COc1ccccc1-c1ccc(C(=O)N2Cc3ccc(C(=O)N4CCCN(C)CC4)n3Cc3ccccc32)cc1OC"
target_under_test = "human vasopressin V1a receptor subtype (Homo sapiens, UniProt P37288)"
unit_descriptor = "%"
assay_value = 8


Next compound, please.
INPUT: Request - read-out inhibition at 0.1 µM | tested on human vasopressin V1a receptor subtype (Homo sapiens, UniProt P37288) | compound `COc1cccc(-c2ccc(C(=O)N3Cc4ccc(C(=O)N5CCC(N6CCCCC6)CC5)n4Cc4ccccc43)cc2C)c1`
OUTPUT: 11
